Literature roundup of ALK tyrosine kinase receptor (Homo sapiens) data, read-out IC50.
# value in nM; strip the unit string

Query :: Which IC50 value is on record for OC[C@H](Nc1cnc(-c2cc(Cl)ccc2O)c(-c2ccc3cnccc3c2)c1)c1ccccc1 ?
Result :: 93.9

Query :: Name the recorded IC50 for COc1cc(-c2cnn(C3CCNCC3)c2)ccc1Nc1ncc(Cl)c(Nc2ccccc2P(C)(C)=O)n1 .
Result :: 0.76

Query :: Look at this compound and give its reported IC50. Cc1cc(-c2ccc(N)cc2)c(/C=C2\C(=O)Nc3ccc(N)cc32)[nH]1
Result :: 68.3

Query :: Field request: IC50 | item: CC(C)Oc1cc(-n2cnc3ccc(N[C@@H](C)c4ccc(F)cn4)nc32)n[nH]1
Result :: 34.1

Query :: Request the reported IC50 associated with CC(C)N1Cc2cc(F)ccc2OCC(C)(C)NC(=O)c2cnc3ccc1nn23
Result :: 99

Query :: Sample COc1cc(N2CCN(C3CCN(C)CC3)CC2)ccc1Nc1ncc(Cl)c(Nc2ccccc2P(C)(C)=O)n1 — what was its IC50?
Result :: 0.28

Query :: Given the compound CCCc1cc2c(cc1N1CCN(C3COC3)CC1)C(C)(C)c1[nH]c3cc(C#N)ccc3c1C2=O , what is its reported IC50?
Result :: 15.1

Query :: Please report the recorded IC50 for CN1CCN(Cc2ccc(NC(=O)c3cc(-c4ccncc4)cnc3O)cc2)CC1 .
Result :: 19500

* * *

Literature roundup of ALK tyrosine kinase receptor (Homo sapiens, UniProt Q9UM73) data, read-out IC50.
# note: exactly 30 nM is not below, so it is 0 (no); use 1 (yes) for IC50 strictly under it

Query :: Quick check: IC50 of CC1(C)c2ccc(C3CCN(C4CC4)CC3)cc2C(=O)c2c1[nH]c1cc(C#N)ccc21 under 30 nM?
Result :: 0 (no)

Query :: API: query returns whether the compound falls strictly under 30 nM in IC50. Query: CC(=O)NCCOc1ccc2c(c1)C(C)(C)c1[nH]c3cc(C#N)ccc3c1C2=O
Result :: 1 (yes)

Query :: is_below(IC50, 30 nM) for CC(C)S(=O)(=O)c1ccccc1Nc1nc(N/N=C/c2ccc(OC(F)(F)F)cc2)ncc1Cl ?
Result :: 1 (yes)

Query :: Dear reviewer, please state whether CC(C)S(=O)(=O)c1ccccc1Nc1nc(Nc2nc(C(=O)N3CCOCC3)cs2)ncc1Cl has IC50 strictly beneath 30 nM.
Result :: 0 (no)

Query :: For CN1CCN(c2ccc(C(=O)Nc3n[nH]c4ccc(Cc5cc(F)cc(F)c5)cc34)c(N[C@H]3CC[C@@H](O)CC3)c2)CC1 , is the recorded IC50 below the cut-off of 30 nM?
Result :: 0 (no)

Query :: Here's an entry: CNC(=O)c1ccccc1Nc1nc(Nc2ccc3c(c2)C(C)CN(C)CC3)nc2sccc12 (stereo not drawn) . Is its IC50 below 30 nM?
Result :: 0 (no)

Query :: Answer whether the compound CN1CCN(C[C@@H](NC(=O)C[C@H]2CNC(=O)c3cc(-c4cccc(Cl)c4)cn32)C2CCCCC2)CC1 has IC50 strictly less than 30 nM
Result :: 0 (no)

Query :: Please determine if COc1cc2c(cc1Nc1ncc(Cl)c(Nc3ccccc3S(=O)(=O)C(C)C)n1)CC/C(=N\NC(C)=O)C2(C)C is below 30 nM in terms of IC50.
Result :: 1 (yes)

Query :: Quick check: IC50 of COCCCNc1cc(N2CCN(C)CC2)ccc1C(=O)Nc1n[nH]c2ccc(Cc3cc(F)cc(F)c3)cc12 under 30 nM?
Result :: 0 (no)

Query :: Hello, is IC50 of the following compound strictly smaller than 30 nM? COc1ccc(/C=N/Nc2ncc(Cl)c(Nc3ccccc3S(=O)(=O)C(C)C)n2)cc1
Result :: 1 (yes)

Query :: Input Cc1ccc(NC2=NC(=O)/C(=C3\C(=O)Nc4ccccc43)S2)cc1 ; condition: IC50 strictly below 30 nM. Does it hold?
Result :: 0 (no)

Query :: Bench note: check whether COc1cc(N2CCNCC2)ccc1Nc1cc(N2CCC[C@@H](C(=O)NCc3ccc(OC(F)(F)F)cc3)C2)ccn1 shows IC50 below 30 nM
Result :: 0 (no)

Query :: Determine whether this compound shows IC50 lower than 30 nM (ties excluded): Nc1ncc(-c2cnn(C3CCNCC3)c2)cc1-c1nc2ccc(N3CCCC3)cc2o1
Result :: 0 (no)

Query :: Given the entry CC(C)c1cc(C(=O)NCC(=O)Nc2cccc(Nc3ncc(Cl)c(Nc4cc(S(=O)(=O)C(C)C)nn4C)n3)c2)c(O)cc1O , would its reported IC50 be below 30 nM?
Result :: 0 (no)

Query :: Is it true that IC50 reported for Oc1ccc(Nc2ncnc3ccc(Br)cc23)cc1 is less than 30 nM?
Result :: 0 (no)

Query :: Lab log: compare recorded IC50 with 30 nM; is it strictly lower for COc1cc2c(cc1Nc1ncc(Cl)c(Nc3ccccc3S(=O)(=O)C(C)C)n1)CC/C(=N\NC(N)=O)C2(C)C ?
Result :: 1 (yes)

Query :: hey, is IC50 for COc1cccc(OC)c1Oc1nc[nH]c(=O)c1/C=C/C(C)=O lower than 30 nM or not?
Result :: 0 (no)

Query :: Report whether reported IC50 is lower than 30 nM (strictly) for Cc1n[nH]c2ccc(-c3cc(N[C@@H](CO)c4ccccc4)cnc3-c3ccc(F)cc3O)cc12
Result :: 0 (no)

* * *

Across several publications, the following IC50 results were reported for ALK tyrosine kinase receptor (Homo sapiens, UniProt Q9UM73).
Answer in nM, number only, no unit symbol.

Query :: Quick one: IC50 for COc1ncc(-c2ccc3c(c2)OCO3)cc1C(=O)Nc1ccc(CN2CCN(C)CC2)cc1 ?
Result :: 20300

Query :: Give its IC50 value. Item: COC(=O)c1cccc(Oc2nc[nH]c(=O)c2/C=C/C(C)=O)c1
Result :: 3030

Query :: Look up IC50: COc1cc(C2CCN(C)CC2)ccc1Nc1ncc(Cl)c(Nc2ccccc2P(C)(C)=O)n1
Result :: 0.38

Query :: Tell me the measured IC50 of COc1cc(-n2cc(CN3CCC(C)CC3)nn2)ccc1Nc1ncc(Cl)c(Nc2ccccc2S(=O)(=O)C(C)C)n1 , please.
Result :: 3.9

Query :: Which value of IC50 has been reported for CN(CCO)Cc1ccc(-c2n[nH]c3nc(-c4ccc(O)cc4)ccc23)o1 in the records?
Result :: 83.2

Query :: What value of measured IC50 is listed for CC1(C)c2cc(N3CCCCC3)ccc2C(=O)c2c1[nH]c1cc(C#N)ccc21 ?
Result :: 33.4

Query :: Could you tell me which IC50 is on file for Cc1cc(-c2ccc(N)cc2)c(/C=C2\C(=O)Nc3ccccc32)[nH]1 ?
Result :: 368

Query :: Query: IC50; subject: COc1cc(OCCCN2CCCC2)ccc1Nc1ncc(Cl)c(Nc2ccccc2P(C)(C)=O)n1
Result :: 0.22

Query :: Bench note: what IC50 did Cc1cc(-c2cccc(NCCN)c2)c(/C=C2\C(=O)Nc3ccccc32)[nH]1 show?
Result :: 89.1

Query :: May I ask what IC50 has been recorded for Cn1cc(/C=C2\C(=O)NN=C2c2nccs2)c2c(OCc3ccc(F)cc3)cccc21 ?
Result :: 63

Query :: Any idea what its IC50 is? The molecule is CCCNC(=O)c1cc(Oc2ccc(NC(=O)c3cc4cccnc4n(-c4ccc(F)cc4)c3=O)cc2)ccn1
Result :: 186

Query :: Requested field: IC50. Item: Cc1cc(-c2ccc(NCCN)cc2)c(/C=C2\C(=O)Nc3ccccc32)[nH]1
Result :: 149

Query :: I would be grateful if you could share the reported IC50 for COc1cc(N2CCOCC2)ccc1Nc1ncc(Cl)c(Nc2ccccc2P(C)(C)=O)n1 .
Result :: 0.24

Query :: Quick one: IC50 of COc1ccc(NC(=O)CNC(=O)c2ccc(O)c(C(C)C)c2)cc1Nc1ncc(Cl)c(Nc2ccccc2S(=O)(=O)C(C)C)n1 ?
Result :: 1.4

Query :: I am curious: what IC50 value has been reported for COc1cc(N2CCC(N3CCCN(C)CC3)CC2)ccc1Nc1ncc(Cl)c(Nc2ccccc2P(C)(C)=O)n1 ?
Result :: 0.49

Query :: Given COc1cc(Oc2nc[nH]c(=O)c2/C=C/C(C)=O)c(C(C)=O)cc1OC , state its recorded IC50.
Result :: 7540

Query :: Given the entry CN1CCN(Cc2ccc(NC(=O)c3cc(-c4ccc5c(c4)OCO5)cnc3Cl)cc2)CC1 , report its measured IC50.
Result :: 26800

* * *

Below are log10 of IC50 measurements against ALK tyrosine kinase receptor (Homo sapiens, UniProt Q9UM73) drawn from the literature.
Sequence (Q9UM73 whole entry): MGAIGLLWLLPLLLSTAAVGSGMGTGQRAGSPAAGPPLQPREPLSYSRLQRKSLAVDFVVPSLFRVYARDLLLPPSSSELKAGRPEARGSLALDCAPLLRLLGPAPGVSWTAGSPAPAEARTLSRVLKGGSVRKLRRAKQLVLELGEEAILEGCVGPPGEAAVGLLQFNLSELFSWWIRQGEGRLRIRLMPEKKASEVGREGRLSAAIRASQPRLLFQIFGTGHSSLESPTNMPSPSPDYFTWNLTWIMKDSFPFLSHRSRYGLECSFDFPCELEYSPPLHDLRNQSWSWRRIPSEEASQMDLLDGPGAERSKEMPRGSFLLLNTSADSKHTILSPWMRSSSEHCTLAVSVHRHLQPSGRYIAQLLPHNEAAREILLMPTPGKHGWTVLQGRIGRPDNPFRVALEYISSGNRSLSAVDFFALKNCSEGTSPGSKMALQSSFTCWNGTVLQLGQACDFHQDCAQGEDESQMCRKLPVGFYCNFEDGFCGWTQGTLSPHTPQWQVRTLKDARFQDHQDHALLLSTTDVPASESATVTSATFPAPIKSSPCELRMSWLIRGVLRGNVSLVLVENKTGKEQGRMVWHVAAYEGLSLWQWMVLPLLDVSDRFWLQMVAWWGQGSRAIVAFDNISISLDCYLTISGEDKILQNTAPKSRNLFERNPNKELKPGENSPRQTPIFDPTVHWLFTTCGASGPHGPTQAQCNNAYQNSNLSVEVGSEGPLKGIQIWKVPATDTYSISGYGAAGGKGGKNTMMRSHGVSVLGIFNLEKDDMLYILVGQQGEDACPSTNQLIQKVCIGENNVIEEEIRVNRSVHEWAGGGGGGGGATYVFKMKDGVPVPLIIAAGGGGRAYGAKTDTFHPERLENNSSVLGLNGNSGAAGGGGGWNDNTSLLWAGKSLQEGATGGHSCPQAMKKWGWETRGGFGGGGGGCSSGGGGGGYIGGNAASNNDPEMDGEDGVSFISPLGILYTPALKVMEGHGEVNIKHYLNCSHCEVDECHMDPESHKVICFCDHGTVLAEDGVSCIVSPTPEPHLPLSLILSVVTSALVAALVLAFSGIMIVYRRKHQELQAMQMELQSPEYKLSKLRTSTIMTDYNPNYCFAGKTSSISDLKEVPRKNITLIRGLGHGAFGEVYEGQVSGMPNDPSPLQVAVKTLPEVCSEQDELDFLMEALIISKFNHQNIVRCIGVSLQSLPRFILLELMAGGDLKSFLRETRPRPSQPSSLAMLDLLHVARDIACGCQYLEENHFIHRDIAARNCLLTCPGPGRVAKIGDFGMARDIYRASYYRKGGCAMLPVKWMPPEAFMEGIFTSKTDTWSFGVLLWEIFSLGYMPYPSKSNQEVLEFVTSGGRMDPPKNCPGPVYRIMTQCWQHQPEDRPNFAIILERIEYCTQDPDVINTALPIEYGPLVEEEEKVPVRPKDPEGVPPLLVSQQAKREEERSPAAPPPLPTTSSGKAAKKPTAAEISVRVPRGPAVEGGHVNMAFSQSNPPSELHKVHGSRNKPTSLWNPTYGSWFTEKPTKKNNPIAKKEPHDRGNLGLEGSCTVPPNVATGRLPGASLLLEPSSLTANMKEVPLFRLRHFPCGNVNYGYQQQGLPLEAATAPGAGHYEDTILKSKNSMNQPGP
Log scale reminder: IC50 in nM, then log10 taken.

Query :: Item COc1cc(N2CCC(N3CCN(C)CC3)CC2)ccc1Nc1ncc(OC)c(Nc2ccccc2P(C)(C)=O)n1 has what recorded log10 of IC50?
Result :: 0.08

Query :: // log10 of IC50 lookup, key: COc1cc(P(C)(C)=O)ccc1Nc1ncc(Cl)c(Nc2ccccc2OC)n1
Result :: -0.02

Query :: Query: log10 of IC50; subject: COc1cc(N2CCC(N3CCN(C)CC3)CC2)ccc1Nc1ncc(Cl)c(Nc2ccccc2I)n1
Result :: 0.13

Query :: Tell me the measured log10 of IC50 of Cc1nnsc1C1=NNC(=O)/C1=C\c1cn(C)c2cccc(OCc3ccccn3)c12 , please.
Result :: 2.20

Query :: So what does the record say about log10 of IC50 for COc1cc(N2CCC3(CCN(C)CC3)CC2)ccc1Nc1ncc(Cl)c(Nc2ccccc2P(C)(C)=O)n1 ?
Result :: 0.20

Query :: Fill blank: measured log10 of IC50 of the compound Oc1ccc(Nc2nc(-c3ccccc3O)nc3ccccc23)cc1 is ____.
Result :: 3.63

Query :: Look up log10 of IC50: Cn1cc(/C=C2\C(=O)NN=C2c2nc(C(F)(F)F)cs2)c2c(OCc3ccccc3)cccc21
Result :: 4.00

Query :: Which log10 of IC50 value is on record for COc1cc(N2CCC(N3CCCCC3)C2)ccc1Nc1ncc(Cl)c(Nc2ccccc2P(C)(C)=O)n1 (centres undefined) ?
Result :: -0.06

Query :: Any idea what log10 of IC50 was measured for COc1cc(P(C)(C)=O)ccc1Nc1ncc(Cl)c(Nc2ccccc2C(N)=O)n1 ?
Result :: -0.17
